Cited source: PubChem BioAssay AID2060600

Test system: 996289-038-R-J1-PDC complex spheroid viability
assay_notes: Anticancer human tumor 996289-038-R-J1-PDC patient-derived colon adenocarcinoma cell line growth inhibition [CLK]
condition_notes: second compound 3.16 µM; first compound 0.3 µM; stronger effect = lower value
Reported viability, T/C is given for each of the following compounds.
Enter your answer as a number in %; do not include the unit.

Previously resolved entries follow.
* C=CC(=O)Nc1cc(Nc2nccc(-c3cn(C)c4ccccc34)n2)c(OC)cc1N(C)CCN(C)C + CN1CCN(c2cc(C(=O)Nc3cc4cc(-c5cnn(C)c5)ccc4cn3)ccn2)CC1 | 0.71
* NC(=O)C(=Cn1cnc(-c2cc(C(F)(F)F)cc(C(F)(F)F)c2)n1)c1cncnc1 + CN1CCN(c2cc(C(=O)Nc3cc4cc(-c5cnn(C)c5)ccc4cn3)ccn2)CC1 | 1.12

Inquiry: # lookup: viability, T/C of CC(C)CC(NC(=O)C(Cc1ccccc1)NC(=O)c1cnccn1)B(O)O (stereo unspecified) + CNC(=O)c1ccc(Nc2nc(OC3CCCC3)c3c(-c4ccc5nc(C)oc5c4)c[nH]c3n2)c(OC)c1
Reply text: 1.44

Inquiry: # lookup: viability, T/C of NC(=O)C(=Cn1cnc(-c2cc(C(F)(F)F)cc(C(F)(F)F)c2)n1)c1cncnc1 + CNC(=O)c1ccc(Nc2nc(OC3CCCC3)c3c(-c4ccc5nc(C)oc5c4)c[nH]c3n2)c(OC)c1
Reply text: 7.76

Inquiry: # lookup: viability, T/C of CC(C)CC(NC(=O)C(Cc1ccccc1)NC(=O)c1cnccn1)B(O)O (stereo unspecified) + CN1CCN(c2cc(C(=O)Nc3cc4cc(-c5cnn(C)c5)ccc4cn3)ccn2)CC1
Reply text: 0.21

Inquiry: # lookup: viability, T/C of C=CC(=O)Nc1cc(Nc2nccc(-c3cn(C)c4ccccc34)n2)c(OC)cc1N(C)CCN(C)C + CNC(=O)c1ccc(Nc2nc(OC3CCCC3)c3c(-c4ccc5nc(C)oc5c4)c[nH]c3n2)c(OC)c1
Reply text: 43.8

====

System: 996289-038-R-J1-PDC complex spheroid viability
assay_notes: Anticancer human tumor 996289-038-R-J1-PDC cell line growth inhibition [CLK];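 further: spheroids exposed to the agents for 7 days before readout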
condition_notes: second compound 0.0316 µM; first compound 0.0316 µM; stronger effect = lower value
Reported viability, T/C is given for each of the following compounds.
Enter your answer as a number in %; do not include the unit.

Previously resolved entries follow.
• CCCS(=O)(=O)Nc1ccc(F)c(C(=O)c2c[nH]c3ncc(-c4ccc(Cl)cc4)cc23)c1F + CNC(=O)c1ccc(Nc2nc(OC3CCCC3)c3c(-c4ccc5nc(C)oc5c4)c[nH]c3n2)c(OC)c1 = 125
• Nc1ccccc1NC(=O)c1ccc(CNC(=O)OCc2cccnc2)cc1 + CN1CCN(c2cc(C(=O)Nc3cc4cc(-c5cnn(C)c5)ccc4cn3)ccn2)CC1 = 99.7
• CC1(C)CCC(CN2CCN(c3ccc(C(=O)NS(=O)(=O)c4ccc(NCC5CCOCC5)c([N+](=O)[O-])c4)c(Oc4cnc5[nH]ccc5c4)c3)CC2)=C(c2ccc(Cl)cc2)C1 + CN1CCN(c2cc(C(=O)Nc3cc4cc(-c5cnn(C)c5)ccc4cn3)ccn2)CC1 = 107

Inquiry: # returns recorded viability, T/C (system: 996289-038-R-J1-PDC complex spheroid viability) for Nc1ccccc1NC(=O)c1ccc(CNC(=O)OCc2cccnc2)cc1 + CNC(=O)c1ccc(Nc2nc(OC3CCCC3)c3c(-c4ccc5nc(C)oc5c4)c[nH]c3n2)c(OC)c1
Reply text: 118

Inquiry: # returns recorded viability, T/C (system: 996289-038-R-J1-PDC complex spheroid viability) for CCc1c2c(nc3ccc(O)cc13)-c1cc3c(c(=O)n1C2)COC(=O)[C@]3(O)CC + CN1CCN(c2cc(C(=O)Nc3cc4cc(-c5cnn(C)c5)ccc4cn3)ccn2)CC1
Reply text: 57.2

====

Reported IC50 is given for each of the following compounds.
Test system: 996289-038-R-J1-PDC complex spheroid viability
assay_notes: Anticancer human tumor 996289-038-R-J1-PDC cell line growth inhibition [CLK];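 further: spheroids exposed to the agents for 7 days before readout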
condition_notes: curve of first compound; second compound 1 µM

Previously resolved entries follow.
• C#Cc1c(F)ccc2cc(O)cc(-c3ncc4c(N5CC6CCC(C5)N6)nc(OCC56CCCN5CC(F)C6)nc4c3F)c12 (stereo unspecified) + CN1CCN(c2cc(C(=O)Nc3cc4cc(-c5cnn(C)c5)ccc4cn3)ccn2)CC1 = < 31.6 nM
• O=c1[nH]cc(F)c(=O)[nH]1 + CN1CCN(c2cc(C(=O)Nc3cc4cc(-c5cnn(C)c5)ccc4cn3)ccn2)CC1 = < 31.6 nM
• CC(C)CC(NC(=O)C(Cc1ccccc1)NC(=O)c1cnccn1)B(O)O (stereo unspecified) + CN1CCN(c2cc(C(=O)Nc3cc4cc(-c5cnn(C)c5)ccc4cn3)ccn2)CC1 = < 0.949 nM
• COc1ccc([C@@H](O)c2cc(-c3ncnc4cc(N5CCOCC5)ccc34)c(F)cc2Cl)nn1 + CNC(=O)c1ccc(Nc2nc(OC3CCCC3)c3c(-c4ccc5nc(C)oc5c4)c[nH]c3n2)c(OC)c1 = 2470 nM

Inquiry: # lookup: IC50 of CCN1CCN(Cc2ccc(Nc3ncc(F)c(-c4cc(F)c5nc(C)n(C(C)C)c5c4)n3)nc2)CC1 + CN1CCN(c2cc(C(=O)Nc3cc4cc(-c5cnn(C)c5)ccc4cn3)ccn2)CC1
Reply text: < 3.16 nM

Inquiry: # lookup: IC50 of C=CC(=O)N1CCN(c2nc(=O)n(-c3c(C)ccnc3C(C)C)c3nc(-c4c(O)cccc4F)c(F)cc23)C(C)C1 (stereo unspecified) + CN1CCN(c2cc(C(=O)Nc3cc4cc(-c5cnn(C)c5)ccc4cn3)ccn2)CC1
Reply text: < 31.6 nM

====

Test system: 996289-038-R-J1-PDC complex spheroid viability
assay_notes: Anticancer human tumor 996289-038-R-J1-PDC cell line growth inhibition [CLK];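 further: spheroids exposed to the agents for 7 days before readout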
condition_notes: second compound 1 µM; first compound 0.316 µM; stronger effect = lower value
Reported viability, T/C is given for each of the following compounds.
Enter your answer as a number in %; do not include the unit.

Previously resolved entries follow.
- CCN1CCN(Cc2ccc(Nc3ncc(F)c(-c4cc(F)c5nc(C)n(C(C)C)c5c4)n3)nc2)CC1 + CN1CCN(c2cc(C(=O)Nc3cc4cc(-c5cnn(C)c5)ccc4cn3)ccn2)CC1: 10.1
- C=C(F)C(=O)N1CCN(c2nc(OCC3CCCN3C)nc3c2CCN(c2cccc4cccc(Cl)c24)C3)CC1CC#N (centres undefined) + CN1CCN(c2cc(C(=O)Nc3cc4cc(-c5cnn(C)c5)ccc4cn3)ccn2)CC1: 6.76
- CCCS(=O)(=O)Nc1ccc(F)c(C(=O)c2c[nH]c3ncc(-c4ccc(Cl)cc4)cc23)c1F + CN1CCN(c2cc(C(=O)Nc3cc4cc(-c5cnn(C)c5)ccc4cn3)ccn2)CC1: 6.22
- C#Cc1c(F)ccc2cc(O)cc(-c3ncc4c(N5CC6CCC(C5)N6)nc(OCC56CCCN5CC(F)C6)nc4c3F)c12 (centres undefined) + CNC(=O)c1ccc(Nc2nc(OC3CCCC3)c3c(-c4ccc5nc(C)oc5c4)c[nH]c3n2)c(OC)c1: 25.4
- C=CC(=O)N1CCN(c2nc(=O)n(-c3c(C)ccnc3C(C)C)c3nc(-c4c(O)cccc4F)c(F)cc23)C(C)C1 (centres undefined) + CNC(=O)c1ccc(Nc2nc(OC3CCCC3)c3c(-c4ccc5nc(C)oc5c4)c[nH]c3n2)c(OC)c1: 66.8
- CC1COCCN1c1cc(C2(S(C)(=N)=O)CC2)nc(-c2ccnc3[nH]ccc23)n1 (centres undefined) + CNC(=O)c1ccc(Nc2nc(OC3CCCC3)c3c(-c4ccc5nc(C)oc5c4)c[nH]c3n2)c(OC)c1: 68.8
- CCc1c2c(nc3ccc(O)cc13)-c1cc3c(c(=O)n1C2)COC(=O)[C@]3(O)CC + CN1CCN(c2cc(C(=O)Nc3cc4cc(-c5cnn(C)c5)ccc4cn3)ccn2)CC1: 3.66
- CC(=O)O[C@H]1C(=O)[C@@]2(C)[C@H]([C@H](OC(=O)c3ccccc3)[C@]3(O)C[C@H](OC(=O)[C@H](O)[C@@H](NC(=O)c4ccccc4)c4ccccc4)C(C)=C1C3(C)C)[C@]1(OC(C)=O)CO[C@@H]1C[C@@H]2O + CNC(=O)c1ccc(Nc2nc(OC3CCCC3)c3c(-c4ccc5nc(C)oc5c4)c[nH]c3n2)c(OC)c1: 57.5

Inquiry: # lookup: viability, T/C of CC(=O)O[C@H]1C(=O)[C@@]2(C)[C@H]([C@H](OC(=O)c3ccccc3)[C@]3(O)C[C@H](OC(=O)[C@H](O)[C@@H](NC(=O)c4ccccc4)c4ccccc4)C(C)=C1C3(C)C)[C@]1(OC(C)=O)CO[C@@H]1C[C@@H]2O + CN1CCN(c2cc(C(=O)Nc3cc4cc(-c5cnn(C)c5)ccc4cn3)ccn2)CC1
Reply text: 2.81
